- Experimental system: T1, hGIPr (C3) (Homo sapiens, UniProt P48546)
- T1 construct: expressed in transfected cells
- T1 sequence (P48546 22-466): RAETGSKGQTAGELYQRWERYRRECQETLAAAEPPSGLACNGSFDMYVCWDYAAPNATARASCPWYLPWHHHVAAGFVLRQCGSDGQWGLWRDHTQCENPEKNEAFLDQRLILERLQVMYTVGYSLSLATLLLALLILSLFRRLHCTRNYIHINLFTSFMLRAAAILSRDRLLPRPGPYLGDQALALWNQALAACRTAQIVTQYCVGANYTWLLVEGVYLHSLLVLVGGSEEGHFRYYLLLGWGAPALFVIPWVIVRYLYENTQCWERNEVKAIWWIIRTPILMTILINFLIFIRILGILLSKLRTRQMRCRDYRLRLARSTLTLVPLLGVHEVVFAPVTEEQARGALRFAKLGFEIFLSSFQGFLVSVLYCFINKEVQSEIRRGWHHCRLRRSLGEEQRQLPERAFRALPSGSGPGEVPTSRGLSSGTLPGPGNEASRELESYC
- Protocol details: BSA-cAMP assay, second human GIPr cell line hGIPr (C3)
- Assay type: cell-based
- Assay setup: Batch 1, second hGIPr cell line, read-out: hGIPr (C3) cAMP activity EC50
Quantity kind: pEC50
Expect pEC50 as a plain number equal to -log10 of the molar concentration.

Query string: Field request: pEC50 | item: IP367 (protein) YSEGTFTSDYRILKERQAIDEFIAWLLKGGAAAGGSGSTASSGSGSATGGGGAATHTCPPC
Result string: 7.89
